- method description: in vivo
- assay conditions: BALB/c nude, mouse, in vivo, iv, total radioactivity, % ID/g Muscle
readout type: tissue uptake at 4 h (%ID/g)

- CCCC[C@H](NC(=O)[C@H](Cc1c[nH]c2ccccc12)NC(=O)CNC(=O)[C@H](Cc1ccc(O)cc1)NC(=O)[C@H](C)NC(=O)[C@@H](CCC(=O)O)NC(=O)[C@@H](CCC(=O)O)NC(=O)[C@@H](CCC(=O)O)NC(=O)[C@@H](CCC(=O)O)NC(=O)[C@@H](CCC(=O)O)NC(=O)[C@@H](CCC(=O)O)NC(=O)CN1CCN(CC(=O)O)CCN(CC(=O)O)CCN(CC(=O)O)CC1)C(=O)N[C@@H](CC(=O)O)C(=O)N[C@@H](Cc1ccccc1)C(N)=O [^177Lu-C-2, metal not drawn, reference compound]: 0.06

====

- method description: in vivo
- assay conditions: BALB/c nude, mouse, in vivo, iv, total radioactivity, % ID/g Heart
Reported tissue uptake at 24 h values follow for various compounds
readout type: tissue uptake at 24 h (%ID/g)

- CCCC[C@H](NC(=O)[C@H](Cc1c[nH]c2ccccc12)NC(=O)CNC(=O)[C@H](Cc1ccc(O)cc1)NC(=O)[C@H](C)NC(=O)[C@@H](CCC(=O)O)NC(=O)[C@@H](CCC(=O)O)NC(=O)[C@@H](CCC(=O)O)NC(=O)[C@@H](CCC(=O)O)NC(=O)[C@@H](CCC(=O)O)NC(=O)[C@@H](CCC(=O)O)NC(=O)CN1CCN(CC(=O)O)CCN(CC(=O)O)CCN(CC(=O)O)CC1)C(=O)N[C@@H](CC(=O)O)C(=O)N[C@@H](Cc1ccccc1)C(N)=O [^177Lu-C-2, metal not drawn, reference compound]: 0.04
- C[C@@H](O)[C@H](NC(=O)[C@@H]1CSSC[C@H](NC(=O)[C@@H](Cc2ccccc2)NC(=O)[C@H](CCCCNC(=O)c2cccc(NC(=O)N[C@@H]3CN(C4CCCCC4)c4ccccc4N(CC(=O)C(C)(C)C)C3=O)c2)NC(=O)COCCOCCNC(=O)CN2CCN(CC(=O)O)CCN(CC(=O)O)CCN(CC(=O)O)CC2)C(=O)N[C@@H](Cc2ccc(O)cc2)C(=O)N[C@H](Cc2c[nH]c3ccccc23)C(=O)N[C@@H](CCCCN)C(=O)N[C@@H]([C@@H](C)O)C(=O)N1)C(=O)O [^177Lu-I-35, metal not drawn]: 0.56

====

- method description: in vivo
- assay conditions: BALB/c nude, mouse, in vivo, iv, total radioactivity, T/St Tumor/Stomach ratio
readout type: tissue to tissue ratio at 24 h

- C[C@@H](O)[C@H](NC(=O)[C@@H]1CSSC[C@H](NC(=O)[C@@H](Cc2ccccc2)NC(=O)CCCCCCCNC(=O)[C@H](CCCCNC(=O)c2cccc(NC(=O)N[C@@H]3CN(C4CCCCC4)c4ccccc4N(CC(=O)C(C)(C)C)C3=O)c2)NC(=O)CN2CCN(CC(=O)O)CCN(CC(=O)O)CCN(CC(=O)O)CC2)C(=O)N[C@@H](Cc2ccc(O)cc2)C(=O)N[C@H](Cc2c[nH]c3ccccc23)C(=O)N[C@@H](CCCCN)C(=O)N[C@@H]([C@@H](C)O)C(=O)N1)C(=O)O [Compound I-61, DOTA-K(Z360)-Aoc-f[CYwKTC]T-OH]: 4.5
- C[C@@H](O)[C@H](NC(=O)[C@@H]1CSSC[C@H](NC(=O)[C@@H](Cc2ccccc2)NC(=O)COCCOCCNC(=O)[C@H](CCCCNC(=O)c2cccc(NC(=O)N[C@@H]3CN(C4CCCCC4)c4ccccc4N(CC(=O)C(C)(C)C)C3=O)c2)NC(=O)COCCOCCNC(=O)CN2CCN(CC(=O)O)CCN(CC(=O)O)CCN(CC(=O)O)CC2)C(=O)N[C@@H](Cc2ccc(O)cc2)C(=O)N[C@H](Cc2c[nH]c3ccccc23)C(=O)N[C@@H](CCCCN)C(=O)N[C@@H]([C@@H](C)O)C(=O)N1)C(=O)O [Compound I-52, DOTA-OEG-K(Z360)-OEG-f[CYwKTC]T-OH]: 2.4
- C[C@@H](O)[C@H](NC(=O)[C@@H]1CSSC[C@H](NC(=O)[C@@H](Cc2ccccc2)NC(=O)CNC(=O)COCCOCCNC(=O)[C@H](CCCCNC(=O)c2cccc(NC(=O)N[C@@H]3CN(C4CCCCC4)c4ccccc4N(CC(=O)C(C)(C)C)C3=O)c2)NC(=O)CN2CCN(CC(=O)O)CCN(CC(=O)O)CCN(CC(=O)O)CC2)C(=O)N[C@@H](Cc2ccc(O)cc2)C(=O)N[C@H](Cc2c[nH]c3ccccc23)C(=O)N[C@@H](CCCCN)C(=O)N[C@@H]([C@@H](C)O)C(=O)N1)C(=O)O [Compound I-53, DOTA-K(Z360)-OEG-G-f[CYwKTC]T-OH]: 4.8
